Cited source: patent US12275703B2

System: bacterial reverse mutation
EXPERIMENT: bacterial reverse mutation (Ames) test
Format: cell-based
COND: bacterial reverse mutation (Ames) test
QUANTITY KIND: Ames Positive?

MOLECULE | QUANTITY KIND | RESULT
CC(C)(C)C(=O)OC[C@@H](N=[N+]=[N-])[C@@H]1O[C@@H](OC(=O)C(C)(C)C)[C@H](OC(=O)C(C)(C)C)[C@H]1OC(=O)C(C)(C)C | Ames Positive? | No
Cl.O[C@@H]1[C@H](O)[C@@H](O)CN[C@@H]1CCl [Compound X] | Ames Positive? | Ames positive
[N-]=[N+]=N[C@@H]1CO[C@@](O)(CO)[C@@H](O)[C@H]1O [Compound P] | Ames Positive? | Ames positive
CCCl [Ethyl chloride] | Ames Positive? | Yes
[N-]=[N+]=N[C@H](CO)[C@@H]1O[C@@H](O)[C@H](O)[C@H]1O [Compound Q] | Ames Positive? | Ames positive
CC(C)(C)C(=O)OC[C@H](N=[N+]=[N-])[C@@H]1O[C@@H](OC(=O)C(C)(C)C)[C@H](OC(=O)C(C)(C)C)[C@H]1OC(=O)C(C)(C)C [Compound N] | Ames Positive? | No
